- experiment-notes: in vitro
- measurement-context: human, cryopreserved hepatocytes
property: hepatocyte CLint

CN(C)CCCN1c2ccccc2CCc2ccc(Cl)cc21    134 µL/min/1e6 cells

Inquiry: # input compound: CC(CCc1ccccc1)NCC(O)c1ccc(O)c(C(N)=O)c1 (stereo not drawn) ; wanted: its hepatocyte CLint
Reply text: 21.6 µL/min/1e6 cells

Inquiry: What about this compound? CCC1=C(C)CN(C(=O)NCCc2ccc(S(=O)(=O)NC(=O)N[C@H]3CC[C@H](C)CC3)cc2)C1=O [GLIMEPIRIDE]
Reply text: 5.62 µL/min/1e6 cells

Inquiry: What about this compound? O=c1[nH]c2ccccc2n1CCCN1CCC(n2c(=O)[nH]c3cc(Cl)ccc32)CC1
Reply text: 59.5 µL/min/1e6 cells
